experiment_summary: Human HepG2 cell viability assay in 384 well format
Format: toxicity, cell-based
Design: dose 125 nL, time 70.5 hour; concentration not given beside the values
measurement_setup: HepG2 cells, read-out: Inhibition
attribute_measured: cytotoxicity at 70.5 h (%)
// note: answer is a bare numeric in %

The following compounds have reported results that may help.
compound	observed_result
Cc1ccc([C@@H]2CN(S(=O)(=O)C(C)C)C[C@H]2N(C)C)cc1	-12.5
COc1ccc(CNc2nnc(CC(C)(C)C)o2)cc1C#N	-3.97
CCC1CCCN(C(=O)NCc2cccnc2-n2cccn2)C1 (configuration not stated)	-4.16
Cc1nc(COC(=O)c2cccc3c2OCCO3)cs1	-11.2

# input compound: CC(=O)c1cc(CN2CCCC23CCN(c2ccccn2)CC3)cs1 ; wanted: its cytotoxicity at 70.5 h
-19.2

Would you kindly repeat that for OC(CN1CC(n2cccn2)C1)c1ccc2c(c1)OCCO2 (configuration not stated) ?
-3.2

Would you kindly repeat that for Cc1cnc(N2CCC3(CC2)CC3CN(C)Cc2cccnc2)nc1 (configuration not stated) ?
2.52

Would you kindly repeat that for CCOc1ccccc1C(CC(=O)Nc1ncc(C)s1)NC(C)=O (configuration not stated) ?
14.6

Would you kindly repeat that for CCN1CCN(CCC(=O)NC2CC(c3cccc(Cl)c3)C2)CC1 (configuration not stated) ?
3.15

Would you kindly repeat that for CCCOC1CCCN(C(=O)c2ccnc(N3CCN(C)CC3)c2)C1 (configuration not stated) ?
23

Would you kindly repeat that for CC(C)C1CN(c2ncccc2Cl)CCC(=O)N1Cc1ccc(F)cc1 (configuration not stated) ?
4.1

----------
Some compounds, each annotated with its measured cytotoxicity at 70.5 h.
experiment_summary: Human HepG2 cell viability assay in 384 well format
Type: toxicity, cell-based
Set-up: dose 125 nL, time 70.5 hour; concentration not given beside the values
measurement_setup: HepG2 cells, read-out: Inhibition
// note: answer is a bare numeric in %

The following compounds have reported results that may help.
compound	unit_descriptor	cytotoxicity at 70.5 h
COc1ncccc1C(=O)N1CC[C@H]2C[C@@H](c3nccs3)O[C@@H]2C1	%	-23.1
Cc1nn2c(N3CCC(C(N)=O)CC3)cc(-c3ccccc3)nc2c1C	%	-2.04
CC(Cn1cccn1)NC(=O)C1=Cc2ccccc2OC1 (stereo unspecified)	%	-4.64
COC(=O)c1cc2c(=O)n(C3CC3)ccc2nc1C	%	2.32
O=C(N[C@@H]1CCC[C@@H](N2CCOCC2)[C@@H]1O)c1ncccn1	%	6.75

# input compound: COC(=O)c1ccc(OCCn2cnc(C#N)n2)cc1 ; wanted: its cytotoxicity at 70.5 h
-24.3

----------
experiment_summary: Human HepG2 cell viability assay in 384 well format
Format: toxicity, cell-based
Set-up: dose 125 nL, time 70.5 hour; concentration not given beside the values
measurement_setup: HepG2 cells, read-out: Inhibition
attribute_measured: cytotoxicity at 70.5 h
Hi, when you answer, please include the unit after the number. Thanks!

structure_as_smiles	cytotoxicity at 70.5 h
O=C1CNc2ncnc(N3CCN(Cc4ccccc4F)CC3)c2N1	-7.69%
C[C@@H]1CN(C(=O)CCc2nncn2C)C[C@@]1(O)C1CCC1	-2.96%
COc1ccc2c(c1)C1(CCN(Cc3ccncc3)CC1)N(C)CC2	-10.8%

Moving on to another compound below.
# input compound: O=C(NCCNc1ncccn1)N1CCSCC1 ; wanted: its cytotoxicity at 70.5 h
-11.7%
